- target_under_test: hGPR17L (Homo sapiens)
- Sequence (Q13304 whole entry): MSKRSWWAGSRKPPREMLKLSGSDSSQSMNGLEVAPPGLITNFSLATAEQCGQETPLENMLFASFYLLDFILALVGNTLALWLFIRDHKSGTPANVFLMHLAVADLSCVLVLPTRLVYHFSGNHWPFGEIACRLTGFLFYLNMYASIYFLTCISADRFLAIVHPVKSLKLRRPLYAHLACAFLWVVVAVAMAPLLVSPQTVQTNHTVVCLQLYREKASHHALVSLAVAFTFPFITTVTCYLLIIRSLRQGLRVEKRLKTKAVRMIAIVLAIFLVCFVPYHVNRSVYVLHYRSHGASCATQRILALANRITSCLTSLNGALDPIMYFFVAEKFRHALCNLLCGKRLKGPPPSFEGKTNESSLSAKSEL
- protocol_text: Endpoint cAMP (HTRF) in GLUTag cells expressing hGPR17L
- Type: cell-based
- Design: host or cells: GLUTag cells (murine enteroendocrine line), adenoviral transduction
- condition_summary: 10 µM forskolin, 500 µM IBMX, GLUTag hGPR17L; read-out: IC50, inhibition of forskolin-stimulated cAMP
readout_label: IC50 (µM)
Answer in µM, number only, no unit symbol.

Any idea what its IC50 is? The compound is O=C(O)CCc1c(C(=O)O)[nH]c2cc(Cl)cc(Cl)c12
0.029

----------
- target_under_test: mGPR17 (Mus musculus, UniProt Q6NS65)
- Sequence (Q6NS65 whole entry): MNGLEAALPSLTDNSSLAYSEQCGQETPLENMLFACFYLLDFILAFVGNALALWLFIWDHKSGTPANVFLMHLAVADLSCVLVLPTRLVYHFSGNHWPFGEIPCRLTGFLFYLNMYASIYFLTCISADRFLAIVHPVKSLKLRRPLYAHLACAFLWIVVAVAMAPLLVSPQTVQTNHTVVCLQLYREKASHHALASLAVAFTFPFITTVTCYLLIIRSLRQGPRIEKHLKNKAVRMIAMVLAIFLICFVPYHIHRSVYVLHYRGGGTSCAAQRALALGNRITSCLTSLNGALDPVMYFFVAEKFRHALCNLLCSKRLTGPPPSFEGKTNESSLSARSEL
- protocol_text: Calcium mobilization in HEK293 cells transfected with mGPR17
- Format: cell-based
- condition_summary: HEK293 mGPR17; read-out: Calcium Potency EC50
readout_label: EC50 (nM)
Give a bare numeral; the unit nM is implied.

Fill in: EC50 of O=C(O)CCc1c(C(=O)O)[nH]c2cc(Cl)cc(Cl)c12 [MDL29,951] is ___
490
